Origin of values: PubChem BioAssay (NCI)

Collected TGI values appear next to each entry.
Test system: UACC-257 melanoma
Test: NCI tumour cell line growth inhibition, 48 h

{"columns": ["compound", "TGI"],
 "data": [
  ["COC(=O)C1=C(O)C(C(=O)OC)[C@@]2(O)[C@@H](C(=O)OC)C(c3ccccc3C(F)(F)F)C[C@@H]1[C@@H]2C(=O)OC (some centres undefined)", "20.3 µM"],
  ["C=CCn1c(-c2ccc(N=NNc3ccc(-c4n[nH]c(=S)n4CC=C)cc3)cc2)n[nH]c1=S", "> 100 µM"],
  ["COc1cc(C=C2C(=O)OC(C)(C)OC2=O)cc(OC)c1OC", "> 100 µM"],
  ["COC12OC3(C4OC41)C(C(=O)O[C@H]3CO[Si](C)(C)C(C)(C)C)C2S(=O)(=O)c1ccccc1 (some centres undefined)", "> 12.6 µM"],
  ["COc1cc2c(cc1OC)[C@@H]1[C@H](C2=O)c2ccc([N+](=O)[O-])cc2C(=O)N1CCCBr", "0.893 µM"],
  ["CC(=O)c1c[nH]c2ccc(-c3ccnc(Nc4ccc(NC(=O)c5cccc(F)c5)c(CN5CCOCC5)c4)n3)cc12", "2.65 µM"],
  ["COC(=O)c1nc(N)[nH]c(=O)c1-c1ccc(Cl)cc1", "> 100 µM"],
  ["COc1ccc(C2CC(c3cccc(Nc4ccnc5cc(Cl)ccc45)c3)=NN2c2ccccc2)cc1 (centres undefined)", "31.4 µM"],
  ["Nc1c2c(nc3ccccc13)-c1ccccc1CCC2", "19.4 µM"],
  ["O=C(O)c1cc(/C=C/c2ccc(O)c(O)c2)ccc1O", "> 100 µM"],
  ["O=C(Nc1ccc(Cl)cc1Cl)c1c/c(=N\\O)c2ccc(O)cc2o1", "> 100 µM"],
  ["O=C(/C=C(\\O)C(=O)O)/C=C(\\O)c1ccc(Cl)cc1", "> 100 µM"],
  ["COC(=O)C(=O)C(C(=O)C(=O)Nc1ccc(Cl)cc1Cl)c1nc2ccc(Cl)cc2[nH]c1=O (centres undefined)", "> 100 µM"],
  ["Cc1ccc(NC(=O)C(=O)C2C(=O)C3=C(CC2(C)C)NC2C=CC=CC2S3)c(C)c1 (centres undefined)", "> 100 µM"],
  ["COC(=O)c1ccc2c(c1)[n+](=O)c(C(C)=O)c(C(F)(F)F)n2[O-]", "3.31 µM"],
  ["COc1cc(C(C)(C)C)c(OC(=O)/C=C/C(=O)O/C=C/[N+](=O)[O-])c(C(C)(C)C)c1", "> 100 µM"],
  ["NC1=CN2c3ccccc3N(CC(=O)N3CCOCC3)C2C=C1 (centres undefined)", "> 100 µM"],
  ["O=C1N2CCN=C2c2ccccc2C1(O)c1ccccc1 (centres undefined)", "> 100 µM"],
  ["COc1ccc(/C=C/C=C2C(=O)NC(=S)NC2=O)cc1", "22 µM"],
  ["CC1CCC(O)/C=C/C(=O)OC(C)C(O)/C=C/C(=O)O1 (centres undefined)", "> 100 µM"],
  ["COc1cc(OC)cc(-c2n[nH]nc2-c2ccc3c(c2)OCO3)c1", "70.4 µM"],
  ["O=C(CCCCCn1c2ccccc2c2c3c(c4c5ccccc5[nH]c4c21)C(=O)N(O)C3=O)N1CCOCC1", "7.76 µM"],
  ["N#CCCN(CCN(CCN(C(=O)Nc1ccccc1)c1ccccc1)C(=O)Nc1ccccc1)C(=O)Nc1ccccc1", "> 100 µM"],
  ["CC(C)=CCC[C@@H](C)c1c(O)c(O)c(C)c2nc3ccccc3nc12", "12.7 µM"],
  ["NNC(=S)N/N=C(\\c1nc2ccc(Cl)cc2[nH]c1=O)C(O)c1ccc(Cl)cc1Cl (centres undefined)", "> 100 µM"],
  ["CSc1nc(NC2CC2)c2c(n1)Sc1nc3ccccc3n1N=C2", "> 100 µM"],
  ["Nc1nc(Cl)cc2c1ncn2C1OC(CO)C(O)C1O (centres undefined)", "> 100 µM"],
  ["Cc1cc(C)c(-c2noc(-c3ccc(Cl)cc3)c2C2=NCCN2)c(C)c1", "34 µM"],
  ["COC(CO[Si](C)(C)N[Si](C)(C)OCC(OC)c1ccccc1)c1ccccc1 (centres undefined)", "> 100 µM"],
  ["O=C(/C=C/c1ccco1)c1ccc(Nc2ccnc3cc(Cl)ccc23)cc1", "> 100 µM"],
  ["c1ccc2c3c(c(N4CCNCC4)nc2c1)CCCC3", "20.6 µM"],
  ["C=C1CN(C(=O)c2cc3cc(OC)c(OC)c(OC)c3[nH]2)c2cc([N+](=O)[O-])ccc21", "> 100 µM"],
  ["COc1cc(C2CC(c3ccc(C)cc3)=NN2C(C)=O)ccc1Oc1ccnc2cc(Cl)ccc12 (centres undefined)", "> 100 µM"],
  ["COC(=O)CC[C@@H](NC(=O)C(C)NC(=O)COC1C(O)C(COC(=O)CCCCCCCCCCNC(=O)c2ccc([N+](=O)[O-])c3[nH]c4cc(Br)ccc4c(=O)c23)OC(OCc2ccccc2)C1NC(C)=O)C(N)=O (some centres undefined)", "> 100 µM"],
  ["Cc1cc2nc(N)n[n+]([O-])c2cc1C", "> 100 µM"],
  ["NC(=O)c1ncn(C2CCC(CP(=O)(O)O)C2)c1N (centres undefined)", "> 100 µM"],
  ["COc1ccc(-c2cc(-c3ccco3)c(C#N)c(=O)n2C2OC(OC(=O)c3ccccc3)C(OC(=O)c3ccccc3)C2OC(=O)c2ccccc2)cc1 (centres undefined)", "> 100 µM"],
  ["COC(=O)/C=C1\\C(=O)N(C(C)=O)c2ccccc21", "22.2 µM"],
  ["NC(=O)NC1=NCCC(=O)N1CCc1c[nH]c2ccccc12", "34.6 µM"]
]}

----------
System: HCT-116 colon
Test: NCI tumour cell line growth inhibition, 48 h

{"columns": ["compound", "relation qualifier", "TGI / µM"],
 "data": [
  ["Nc1c2c(nc3ccccc13)-c1ccccc1CCC2", "=", 20.2],
  ["COc1c2c(cc3oc(=O)ccc13)OC(C)(C)C=C2", "=", 40.8],
  ["O=C1c2cc(Br)ccc2-c2c1c1ccccc1c(=O)n2CCCCl", "=", 17.1],
  ["COC(=O)[C@@]12CC3CN(Cc4c1[nH]c1ccccc41)C2CC3=O", ">", 100],
  ["COc1ccc(/C=N\\N2C(=O)Cc3ccccc32)cc1", ">", 100],
  ["O=C(CC1Sc2ccccc2NC1=O)Nc1ccc([N+](=O)[O-])cc1[N+](=O)[O-] (configuration not stated)", "=", 29.8],
  ["OCCOCn1nc(-c2ccccc2)nc1-c1cnccn1", ">", 100],
  ["N#CC1=C(N)Oc2c(sc3c(F)cccc23)C1c1ccc(Cl)cc1 (configuration not stated)", "=", 13.9],
  ["Cc1cc(C)c(-c2noc(-c3ccc(Cl)cc3)c2C2=NCCN2)c(C)c1", "=", 64.5],
  ["COc1cc(Oc2cnc3cc(N)cc(N)c3n2)cc(OC)c1OC", "=", 42.8],
  ["Cc1cc(C)c2c(=O)n(CC(O)CN3CCN(c4ncccn4)CC3)sc2n1 (configuration not stated)", "=", 29],
  ["O=C(O)CC(Cc1ccccc1)C(=O)O (configuration not stated)", ">", 100],
  ["C[N+](C)(C)CC(=O)NC(=O)N/N=C\\C(CC#N)CN(Cc1ccccc1)Cc1ccccc1 (configuration not stated)", ">", 100],
  ["O=C(O)c1cc(/C=C/c2ccc(O)c(O)c2)ccc1O", ">", 100],
  ["N=C(N)c1ccc(-c2ccc(-c3ccco3)o2)cc1", "=", 10.3],
  ["O=C(CCCCCCCCC(=O)OCCCn1cc(C(=O)NC(=O)OCc2ccccc2)c(=O)[nH]c1=O)OCCCn1cc(C(=O)NC(=O)OCc2ccccc2)c(=O)[nH]c1=O", ">", 100],
  ["c1cc(C2O[C@H]3CCCN3[C@@H]2c2ccncc2)ccn1 (some centres not stated)", ">", 100],
  ["COC(CO[Si](C)(C)N[Si](C)(C)OCC(OC)c1ccccc1)c1ccccc1 (configuration not stated)", ">", 100],
  ["O=c1[nH]nc(Nc2ccccc2)c2nnn(Cc3ccccc3)c12", ">", 100],
  ["CC(C)=CCC[C@@H](C)c1c(O)c(O)c(C)c2nc3ccccc3nc12", "=", 12.2],
  ["Cc1cc(CC(O)(C(F)(F)F)C(F)(F)F)cc(CC(O)(C(F)(F)F)C(F)(F)F)n1", "=", 6.09],
  ["CCOC(=O)C(NC(=O)Nc1ccccc1)(Nc1cccc(Cl)c1)C(F)(F)F (configuration not stated)", ">", 100]
]}

----------
System: CCRF-CEM leukemia
Test: NCI tumour cell line growth inhibition, 48 h; in the data active means GI50 below about 0.43 µM; inactive means the rest
Possible outcomes: active, inactive

{"columns": ["compound", "assigned category"],
 "data": [
  ["Cc1c(Br)cccc1NC(=O)c1sc2nc3c(cc2c1N)CN(Cc1ccccc1)CC3", "active"],
  ["COc1cc2c(cc1OC)[C@@H]1[C@H](C2=O)c2ccc([N+](=O)[O-])cc2C(=O)N1CCCBr", "active"],
  ["Nc1nc(Cl)cc2c1ncn2C1OC(CO)C(O)C1O (stereo not drawn)", "inactive"],
  ["Nc1ccc(Cl)cc1.Nc1ccc(Cl)cc1.Nc1ccc(Cl)cc1.O=C([O-])C(=O)[O-].O=C([O-])C(=O)[O-].[H+].[Ru+5]", "active"],
  ["Oc1ccc(Br)cc1CN1CCN(Cc2ccc(Cl)cc2)CC1", "inactive"],
  ["COc1cc(OC)cc(-c2n[nH]nc2-c2ccc3c(c2)OCO3)c1", "active"],
  ["O=C1/C(=C/c2ccc(F)cc2)CN(Cc2cn(CCNc3ccnc4cc(Cl)ccc34)nn2)C/C1=C\\c1ccc(F)cc1", "inactive"],
  ["CC(=N\\O)/C(C)=N/O.CC(=N\\O)/C(C)=N/O.[Pd]", "inactive"],
  ["CN1CCN(c2nc(NCCNc3ccnc4cc(Cl)ccc34)c3ccccc3n2)CC1", "inactive"],
  ["COc1cccc(-n2cnc3c(N/N=C/c4ccncc4)ncnc32)c1", "inactive"],
  ["CCSc1sc(-c2ccc(C)cc2)nc1[P+](c1ccccc1)(c1ccccc1)c1ccccc1", "active"],
  ["COC(=O)C1=C(O)C(C(=O)OC)[C@@]2(O)[C@@H](C(=O)OC)C(c3ccc(OC(=O)C(Cc4ccccc4)NC(C)=O)cc3)C[C@@H]1[C@@H]2C(=O)OC (stereo partly drawn)", "inactive"],
  ["CCCCCCCC(=O)SCC/C=C/[C@@H]1CC(=O)NCc2cccc(n2)CN(Cc2ccc(Cl)cc2)CC(=O)N[C@@H](C(C)C)C(=O)O1", "inactive"]
]}
